This collection of values is drawn from patent US20080058636A1.

Biological target: rat collagen (acid soluble, type I, rat tail, Upstate 08-115) (rat) (UniProt P02454)
Sequence (P02454 152-1207, chain 1 of 2): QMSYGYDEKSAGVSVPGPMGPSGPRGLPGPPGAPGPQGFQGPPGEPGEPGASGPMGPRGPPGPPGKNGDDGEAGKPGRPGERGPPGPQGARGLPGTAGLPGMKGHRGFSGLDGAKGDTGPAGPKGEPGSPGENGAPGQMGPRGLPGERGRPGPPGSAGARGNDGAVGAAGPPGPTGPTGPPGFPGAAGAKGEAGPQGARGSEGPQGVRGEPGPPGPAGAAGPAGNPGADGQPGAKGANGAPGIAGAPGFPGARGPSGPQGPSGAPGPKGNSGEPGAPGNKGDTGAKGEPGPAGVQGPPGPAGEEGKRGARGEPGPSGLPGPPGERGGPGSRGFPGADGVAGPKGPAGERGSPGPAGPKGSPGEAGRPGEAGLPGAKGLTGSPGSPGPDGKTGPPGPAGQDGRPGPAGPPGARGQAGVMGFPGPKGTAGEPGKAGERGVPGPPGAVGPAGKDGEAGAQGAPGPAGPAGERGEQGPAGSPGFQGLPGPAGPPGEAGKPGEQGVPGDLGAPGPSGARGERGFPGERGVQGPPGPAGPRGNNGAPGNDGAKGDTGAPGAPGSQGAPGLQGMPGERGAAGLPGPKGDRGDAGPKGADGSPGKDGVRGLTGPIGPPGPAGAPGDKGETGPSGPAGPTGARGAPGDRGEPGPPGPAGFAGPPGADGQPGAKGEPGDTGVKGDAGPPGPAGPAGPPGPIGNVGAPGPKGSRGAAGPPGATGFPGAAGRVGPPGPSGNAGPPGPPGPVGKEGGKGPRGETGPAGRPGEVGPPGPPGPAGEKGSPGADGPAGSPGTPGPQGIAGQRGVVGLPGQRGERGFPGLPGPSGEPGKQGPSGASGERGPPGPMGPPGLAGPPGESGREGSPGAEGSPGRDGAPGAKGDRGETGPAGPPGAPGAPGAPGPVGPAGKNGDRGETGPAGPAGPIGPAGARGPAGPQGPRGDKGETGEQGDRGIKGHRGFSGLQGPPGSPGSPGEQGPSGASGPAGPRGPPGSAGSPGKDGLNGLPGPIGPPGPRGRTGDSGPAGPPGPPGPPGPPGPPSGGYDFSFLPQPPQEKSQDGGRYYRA
Sequence (P02466 86-1125, chain 2 of 2, further chain): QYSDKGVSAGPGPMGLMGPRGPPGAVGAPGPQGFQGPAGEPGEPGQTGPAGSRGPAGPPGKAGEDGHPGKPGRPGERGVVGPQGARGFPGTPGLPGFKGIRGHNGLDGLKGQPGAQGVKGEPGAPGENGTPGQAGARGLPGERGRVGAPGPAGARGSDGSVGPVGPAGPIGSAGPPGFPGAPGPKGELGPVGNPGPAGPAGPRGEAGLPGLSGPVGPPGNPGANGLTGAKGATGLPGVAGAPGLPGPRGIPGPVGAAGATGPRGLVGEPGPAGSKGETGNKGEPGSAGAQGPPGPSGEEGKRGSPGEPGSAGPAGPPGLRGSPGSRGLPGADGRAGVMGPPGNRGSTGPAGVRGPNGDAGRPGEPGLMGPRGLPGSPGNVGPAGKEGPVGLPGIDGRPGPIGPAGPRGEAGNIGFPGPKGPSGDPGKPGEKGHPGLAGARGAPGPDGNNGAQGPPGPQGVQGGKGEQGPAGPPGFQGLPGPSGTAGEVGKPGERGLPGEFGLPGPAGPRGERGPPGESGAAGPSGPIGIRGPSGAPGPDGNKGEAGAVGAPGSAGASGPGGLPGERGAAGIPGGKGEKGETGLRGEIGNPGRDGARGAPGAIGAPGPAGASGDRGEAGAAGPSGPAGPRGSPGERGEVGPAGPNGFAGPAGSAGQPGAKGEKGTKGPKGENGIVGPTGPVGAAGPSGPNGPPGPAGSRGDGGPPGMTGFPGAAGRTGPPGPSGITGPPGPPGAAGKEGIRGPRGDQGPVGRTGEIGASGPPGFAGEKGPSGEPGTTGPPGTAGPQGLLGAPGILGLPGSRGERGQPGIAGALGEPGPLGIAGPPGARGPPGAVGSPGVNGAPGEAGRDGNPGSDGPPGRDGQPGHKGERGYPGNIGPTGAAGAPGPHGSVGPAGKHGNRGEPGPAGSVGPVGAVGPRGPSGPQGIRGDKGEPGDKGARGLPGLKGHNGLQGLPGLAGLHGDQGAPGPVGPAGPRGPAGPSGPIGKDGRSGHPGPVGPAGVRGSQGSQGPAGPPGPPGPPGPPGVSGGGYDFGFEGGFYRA
Assay: dried collagen assay, 5 uM each
recorded metric: Rat binding (%)

GKWHCTTLFPHHYCLYG [Compound ID 930]	42
GQWHCTTIFPHHYCLYG [Compound ID 917]	0
DWTCSSDEYTWHCNYE [Compound ID 836]	8
GAWHCTTYFPHHYCLYG [Compound ID 915]	0
GAWTCSGDEYTWHCNYE [Compound ID 830]	11
GAWHCTTLFPHHYCLYG [Compound ID 908]	0
GHKWHCTTYFPHHYCLYG [Compound ID 984]	69
